Property: growth; scope: individual compounds
System: MOLT-4 leukemia
Assay: NCI-60 one-dose screen, 48 h (100 = growth as untreated, 0 = no growth, -100 = all killed)
Settings: 10 µM unless noted
Method: Growth inhibition of the MOLT-4 human tumor cell line is measured as a screen for anti-cancer activity. Cells are grown in 96 well plates and exposed to the test compound for 48 hours. Compounds are tested at a single concentration, which is 10^-5 M for most compounds. The reported endpoint is percent growth (GI% or GIPRCNT), where numbers from 0 - 100% represent growth inhibition, and numbers from -100% - 0 represent cell death. For example, a value of 40 represents 60% growth inhibition. […]
The panel holds about 83,000 compounds, 20% with a hit somewhere; the sample as a whole holds those more often.

# compound, assay system, unit of measurement, growth
records = [
    ("CCOc1cc2ncc(C#N)c(Nc3ccc(OCc4cccc(F)c4)c(Cl)c3)c2cc1NC(=O)CCCCC1CCSS1 (configuration not stated)", "MOLT-4 leukemia", "%", 78.5),
    ("O=C(NCCN1CCOCC1)Nc1ccc(-c2cc3c(Nc4ccc(Oc5cccc(C(F)(F)F)c5)c(Cl)c4)ncnc3s2)cc1", "MOLT-4 leukemia", "%", -4.36),
    ("CC1=CC(C)(C)Nc2ccc(Cc3ccc4c(c3)C(C)=CC(C)(C)N4)cc21", "MOLT-4 leukemia", "%", 82.9),
    ("COc1ccc(C2CC(c3ccc4ccccc4c3)=NN2/C=C2\\SC(=S)N(NC(=O)Cc3ccccc3Nc3c(Cl)cccc3Cl)C2=O)cc1 (configuration not stated)", "MOLT-4 leukemia", "%", 13.9),
    ("CCOC(=O)c1cc(C(=O)c2ccc(O)c(O)c2)n2ccc(-c3ccn4c(C(=O)c5ccc(O)c(O)c5)cc(C(=O)OCC)c4c3)cc12", "MOLT-4 leukemia", "%", 63.3),
    ("NC1=C(Cl)C(=O)c2ccc(S(N)(=O)=O)cc2C1=O", "MOLT-4 leukemia", "%", 11.8),
    ("C=C(C)[C@@H]1CC[C@]2(C(=O)OC)CC[C@]3(C)[C@H](CC[C@@H]4[C@@]5(C)C/C(=C/c6cccc(I)c6)C(=O)C(C)(C)[C@@H]5CC[C@]43C)[C@@H]12", "MOLT-4 leukemia", "%", 95.8),
]

----------
Test system: HCT-116 colon
Assay: NCI-60 one-dose screen, 48 h
Settings: 10 µM unless noted
This is part of a sample that, as a whole, favours compounds with a hit. Of some 83,000 tested, about 20% had one in any assay. The source made the active and inactive calls. How the source made its calls: active means growth percent below 10; inactive means the rest.
Outcomes: true (1) = active, false (0) = inactive

# compound, class assignment
measured = [
    ("Nc1nc2ccc3[nH]ncc3c2c2c1CCCC2", "true (1)"),
    ("COc1cc(-c2nn(C)nc2-c2cc3ccccc3s2)cc(OC)c1OC", "false (0)"),
    ("COc1ccc(O)c(N=Nc2nccs2)c1", "false (0)"),
    ("CCOc1ccc(-n2nc(C(=O)Nc3cc(OC)c(OC)c(OC)c3)nc2-c2cc(OC)c(OC)c(OC)c2)cc1", "false (0)"),
    ("COc1ccc(C2CC(c3ccc(Cl)cc3)=NN2/C=C2\\SC(=S)N(NC(=O)Cc3ccccc3Nc3c(Cl)cccc3Cl)C2=O)cc1 (stereo not given)", "false (0)"),
    ("O=C(O)c1ccc(NC(=O)c2ccc(-c3cccc([N+](=O)[O-])c3)o2)cc1", "false (0)"),
    ("O=C1/C(=C/c2ccc(OCCCOc3ccc(Cl)cc3)cc2)N=C2SCCCN12", "false (0)"),
    ("C#CCOc1ccc2ncnc(Nc3cccc(CNC(=O)CCl)c3)c2c1", "false (0)"),
    ("CN(Cc1cc(Cl)cc(Cl)c1O)Cc1cc(Cl)cc(Cl)c1O", "false (0)"),
    ("c1ccc2[nH]c(-c3ccc(Nc4nc(N5CCCC5)nc5[nH]ncc45)cc3)nc2c1", "true (1)"),
    ("COc1cccc(-c2nc3sccn3c2-c2ccnc(NCCNS(=O)(=O)c3ccc(F)cc3)c2)c1", "false (0)"),
    ("O=C1c2cc3c(cc2-c2c1c1ccc(F)cc1c(=O)n2C[C@H](O)[C@H](O)[C@H](O)CO)OCO3", "true (1)"),
    ("CCOc1cc2ncc(C#N)c(Nc3ccc(OCc4cccc(F)c4)c(Cl)c3)c2cc1NC(=O)CC1CCSS1 (stereo not given)", "true (1)"),
    ("C#CCOc1ccc2ncnc(Nc3cccc(CNC(=O)C=C)c3)c2c1", "false (0)"),
    ("Cc1ccc2c(c1)C(=O)/C(=C/c1cccc(OCC(=O)c3ccc(Cl)cc3)c1)CS2", "false (0)"),
    ("CCCCN(CCCC)CCCn1c(-c2ccccc2)ccc1-c1ccccc1", "false (0)"),
    ("COc1ccc2nc(NC(=O)CSc3nnc4n3S(=O)(=O)c3ccccc3N4c3ccccc3)sc2c1", "false (0)"),
    ("OCCNc1nccc(N2CCN(c3ccnc4cc(Cl)ccc34)CC2)n1", "false (0)"),
    ("O=C(Nc1cccc2[nH]c(C(F)(F)F)nc12)c1ccc(-n2cnnn2)cc1", "false (0)"),
    ("O=C1/C(=C(/c2ccccc2)N2CCOCC2)Cc2ccccc21", "true (1)"),
]

# credit: PubChem BioAssay (NCI)
